Recorded melting point by entry

                        chemical_smiles  recorded_value
0  CNc1cc(C=O)cc(S(N)(=O)=O)c1Oc1ccccc1   166 to 167 °C

Recorded melting point (compound CN(CCN1CCCCC1)S(=O)(=O)c1cc([N+](=O)[O-])ccc1Sc1cc(Cl)cc(Cl)c1 ): 113 to 114 °C

melting point in this record for CC(C)C[C@H](NC(=O)CCC(=O)c1ccccc1)C(=O)N[C@@H](C(C)C)[C@@H](O)c1c(-c2ccccc2)c1=O : 83 to 88 °C

###

Catalogue of melting point readings, one per entry.

Here is how some molecules turned out for melting point.
                                   molecule  recorded_value
0  CNC(=O)C(C)Oc1cc(-c2nn(C)c(C(F)(F)F)c2Cl)c(F)cc1Cl (centres undefined)   134 to 136 °C
1  O=C(O)CCc1cn(Cc2ccc(OCc3coc(-c4ccccc4)n3)cc2)nc1-c1cccs1   145 to 146 °C
2            O=C(COc1ncc(Cl)cc1Cl)Nc1ccccc1   164 to 166 °C
3  CNC1=CC(=O)C(Nc2ncnc3cc(OC)c(OC)cc23)=CC1=O   283 to 285 °C
4  CN1C(=O)C2(COc3cc4c(cc32)OCCO4)c2c(OCc3ccccc3)cccc21 (centres undefined)   198 to 200 °C
5  COc1cc(OC)c(-c2cccs2)cc1/C=C/C(=O)c1ccc(S(=O)(=O)Nc2ccc(F)cn2)cc1   194 to 195 °C

# melting point (molecule: O=c1oc(Nc2ccccc2I)nc2ccccc12 ) is 140 to 143 °C

The recorded melting point for CS(=O)(=O)NC(=O)C1(CCCCCCCCCCCCC2(C(N)=O)CC2)CC1 is 119 to 120 °C

According to the records, this molecule COC(=O)CC(NC(=O)OC(C)(C)C)c1ccc(O)cc1 (centres undefined) displays melting point of 119 to 120 °C

###

measure_name: melting point

Before answering, review these 2 worked examples.
>>> print(df.to_string())
                                   molecule   measure_name  recorded_value
0                  O=Cc1csc(Nc2ccc(F)cc2)n1  melting point   152 to 155 °C
1  CCCCN(CCCC)c1ccc(C=C2C(=C(C#N)C#N)c3ccccc3C2=C(C#N)C#N)c(OC)c1  melting point   195 to 198 °C

Now take the following molecule into account.
Reported melting point of O=c1[nH]c2ccc(S(=O)CCN3CCC(Cc4cccc(F)c4F)CC3)cc2o1 (stereo not drawn) : 188 to 190 °C

###

Some compounds, each annotated with its measured melting point.

// known answers, use as guide
In [3]: df
Out[3]:
                                   compound   measure_name  recorded_value
0  C[Si](C)(C)CCCCCCCCCCCCCCNc1ccc(C(=O)O)cc1  melting point   105 to 107 °C
1  CCOC(=O)c1c(Cn2cnnc2)nc2cc(OC)c(OC)cc2c1-c1ccc(OC)cc1  melting point   218 to 219 °C

Value of melting point reported for the compound N=C1c2c(F)cccc2S(=O)(=O)N1CC1CC1 is 90 to 93 °C

Reported melting point for COc1ccc(C(=O)c2ccsc2)cc1 was 58 to 61 °C

According to the records, this compound COC(=O)c1ccc2c(c1)CN(c1c(F)cc3c(=O)c(C(=O)O)cn4c3c1OCC4C)C2 (centres undefined) displays melting point of 257 to 262 °C

// field: melting point; key: OC(COc1ccccc1Cl)(Cn1cncn1)Cn1cncn1 ; value = 95 °C

The compound C=Cc1nc(C#N)c(C#N)[nH]1 showed melting point equal to 168 to 170 °C

Form: compound = COc1ccc2ccc(N3C(=O)c4ccccc4C3OCC(=O)N3CCOCC3)nc2n1 (centres undefined) ; melting point = 192 °C

###

Catalogue of melting point readings, one per entry.

Example compounds with recorded melting point:
>>> print(df.to_string())
                                   compound  recorded_value
0  CCCc1nc2c(N)nc3cc(-c4cccc(CN)c4)ccc3c2s1   168 to 171 °C
1  CN(Cc1ccc2c(Br)c(OC(Cc3ccccc3)C(=O)O)ccc2c1)C(=O)c1oc2ccccc2c1CCc1ccccc1 (centres undefined)     87 to 90 °C
2  CCCCCCCCOc1ccc(-c2ccc(C(=O)O[C@@H](C)C(=O)OCCCC)cc2)cc1           51 °C
3  C#Cc1ccc(C(=O)NC(C#N)OCC)cc1 (centres undefined)   104 to 106 °C
4                      Cc1ccc(P(C)(C)=O)cc1     90 to 92 °C
5  CC(C)(C)c1ccc(CC[C@H](CC2CCCCC2)O[Si](C)(C)C(C)(C)C)cc1NC(=O)CC1c2ccccc2Oc2ccccc21   173 to 174 °C
6  CC(=O)OCC1OC(n2cc(F)c(=O)[nH]c2=O)CC1OC(C)=O (centres undefined)          151 °C
7  O=C(O)c1ccc2c(c1)OC(c1cc(F)cc(F)c1)(c1cc(F)cc(F)c1)O2           96 °C

# ---- query compound ----
Item: CCOC(=O)CC(=O)N(C)c1ccc(Cl)cc1N | melting point: 112 to 114 °C

###

measure_name: melting point

Previously resolved entries follow.
In [3]: df
Out[3]:
                                   molecule  recorded_value
0  Fc1ccc2c(C3CCN(C(=S)Nc4ccccc4)CC3)nn(-c3ccccc3)c2c1   151 to 153 °C
1  Cc1cccc(Oc2c(-c3ccc(S(C)(=O)=O)cc3)oc(C)cc2=O)c1          162 °C
2  CC(C)NC(=O)c1nc(-c2cccc(Cl)c2)c(-c2ccc(=O)n(C(C)C)n2)s1   105 to 106 °C
3  CCOc1ccc2c(c1)N=C(c1cccc(-c3ccc(C)nc3)c1)CC(=O)N2          173 °C
4                       Oc1ccc(Br)c2c1CCCC2     83 to 85 °C

get_value(item= O=C(O)COc1cccc2c1CCC(Cc1c[nH]c(C(c3ccccc3)c3ccccc3)n1)C2 (configuration not stated) , readout=melting point) returns 170 °C

CN(C(=O)N[C@@H](Cc1ccc(Oc2nccc3ccncc23)cc1)C(=O)O)c1ccccc1Cc1ccccc1 yielded melting point of 128 °C

The recorded melting point for C#CCN1CCN(C2=Nc3cc(Cl)ccc3Nc3ccccc32)CC1 is 138 to 140 °C

// melting point value for CN1C(=O)CN(c2cccc(Cl)c2)NC1=O : 178 to 180 °C

Record Cc1ccc(S(=O)(=O)OC2CCC3(CC2)OCCO3)cc1 . Reported melting point: 65 to 67.5 °C

N#Cc1cccc(-c2nc(N)cc3cccnc23)c1 has a reported melting point of 102 to 104 °C

Lab book: melting point of CCCc1c(OCCCCCC(=O)NC(C)CCCc2cccnc2)ccc(C(C)=O)c1O (configuration not stated) noted as 63 to 66 °C

// field: melting point; key: CC(=O)Cc1ccc(NC(=O)/C=C/c2cnn(C)c2-c2ccc(F)cc2)cc1 ; value = 186 to 187 °C

Per the records, this molecule ( CCC(CC)Nc1ncnc2c1ncn2C ) has melting point equal to 107 to 109 °C

Kindly note the recorded melting point for CCCCCCCCCCCCC1=C(OC(=O)OC)C(=O)c2ccccc2C1=O , which is 70 to 72 °C

The molecule listed as COc1ccccc1CCNC(=S)Nc1nc2ccccc2[nH]1 shows melting point equal to 176 to 184 °C

Data point: CC(=O)NC1CCc2c([nH]c3ccc(F)cc23)C1 (configuration not stated) ; melting point = 209 to 210 °C

Memo: CCOC(=O)c1cc2ccc3c(c2cc1OC)OC(n1cccc1)=C(C#N)C3c1cccc([N+](=O)[O-])c1 (configuration not stated) , reported melting point: 190 to 191 °C

###

Entries and their melting point values follow.

For orientation, consider the following solved cases.
>>> print(df.to_string())
                            chemical_smiles  recorded_value
0  Cc1nc2cccc(OCC(C)(C)NC(=O)CN3CCOCC3)c2c(N)c1C(=O)O   173 to 175 °C
1  O=c1[nH]c2ncc(-c3ccc4[nH]cnc4c3)nc2n1CCC1CCOCC1   264 to 265 °C

For O=C(O)CCCCN(Cc1ccccc1)Cc1ccccc1 the molecule record lists melting point as 202 to 205 °C

###

Quick reference for melting point among some compounds

Use these answered entries as a reference point.
>>> df
                                   compound  recorded_value
0  CCOc1ccc(NC=C(C#N)C(=O)Nc2cc(OC)c(Cl)cc2Cl)cc1F   245 to 247 °C
1  CCOc1cc(Cc2cnc(N)nc2N)cc2c1OC(C)(C)C=C2c1ccncc1   223 to 226 °C

Entry CC(O)(C#Cc1ccccc1)C(=O)O (stereo not drawn) , melting point reported as 104 to 106 °C
